Below is a list of entries, each paired with its recorded GI50 value.
# Test system: OVCAR-5
# EXPERIMENT: NCI tumour cell line growth inhibition, 48 h
Activity calls are given as the source filed them. No stated cut-off is given here; in the data, active = GI50 up to about 1.1 µM and inactive = higher.

{"COMPOUND": "COC(=O)/C=C1/N=C(N(C)/N=C/c2ccccc2)NC1=O", "MEASURED_VALUE": "> 100 µM (inactive)"}
{"COMPOUND": "COc1c(NC(C)=O)c2ccccc2c2ccccc12", "MEASURED_VALUE": "> 100 µM (inactive)"}
{"COMPOUND": "C1CSCCSCCCS[C@@H]2CCCCC2SC1 (stereo partly drawn)", "MEASURED_VALUE": "> 100 µM (inactive)"}

Problem: Input CN(N=O)c1nc2c(C(N)=O)ncn2s1 , output reported GI50.
Solution: > 100 µM (inactive)

Problem: Input COc1ccc2c(c1)CCc1cnn(C3OC(COC(C)=O)C(OC(C)=O)C(OC(C)=O)C3OC(C)=O)c1-2 (stereo not drawn) , output reported GI50.
Solution: > 100 µM (inactive)

Problem: Input CC1=CC(=O)c2cccc(O)c2C1=O , output reported GI50.
Solution: 8.09 µM (inactive)

Problem: Input CCCCCCCCCCNCCSSCc1ccc(Cl)cc1 , output reported GI50.
Solution: 1.91 µM (inactive)

Problem: Input CC(NNC(=O)c1ccncc1)c1cccc(C(F)(F)F)c1 (stereo not drawn) , output reported GI50.
Solution: > 100 µM (inactive)

###

# Test system: HOP-92
# EXPERIMENT: NCI tumour cell line growth inhibition, 48 h
Activity calls are given as the source filed them. Cut-off read from the data, not from the text of the source: active = GI50 up to about 1.1 µM and inactive = higher.
Below is a list of entries, each paired with its recorded GI50 value.

{"COMPOUND": "O=[N+]([O-])c1ccc(Cl)cc1C1ON=C(c2ccccc2)N1C12CC3CC(CC(C3)C1)C2 (stereo not given)", "GI50": "> 100 µM (inactive)"}
{"COMPOUND": "CC1(C)CC23CC(C)(C)c4cccc(c42)OCc2ccc4ccc5ccc(nc5c4n2)COc2cccc1c23", "GI50": "> 50 µM (inactive)"}
{"COMPOUND": "Cc1ccc(N/N=C2\\C3=C(CCC(C)(C)O3)C(=O)c3ccccc32)cc1", "GI50": "43.5 µM (inactive)"}

Problem: Input NC(=O)c1ncn2c(=O)n(CCCl)nnc12 [MITOZOLOMIDE] , output reported GI50.
Solution: 136 µM (inactive)

Problem: Input C/C(CC(=O)CCC(=O)Nc1cccc(C(F)(F)F)c1)=N\NC(=O)NN , output reported GI50.
Solution: > 100 µM (inactive)

Problem: Input CC(C)OP(=O)(OC(C)C)/C(F)=N/Nc1ccc([N+](=O)[O-])cc1 , output reported GI50.
Solution: > 100 µM (inactive)

Problem: Input CCOC(=O)N(NC(=O)NC(C)C)c1ccccc1 , output reported GI50.
Solution: > 100 µM (inactive)

Problem: Input O=c1c2ccccc2nc(-c2cccc([N+](=O)[O-])c2)n1O , output reported GI50.
Solution: 3.94 µM (inactive)

Problem: Input O=C1O[C@@H](c2ccccc2)C[C@@H]1CN1CCOCC1 , output reported GI50.
Solution: > 100 µM (inactive)

Problem: Input CN(C)c1ccc(/C=N/NC2=N/C(=C\c3ccco3)C(=O)N2)cc1 , output reported GI50.
Solution: > 100 µM (inactive)

###

# Tested on: 786-0
# EXPERIMENT: NCI tumour cell line growth inhibition, 48 h
Calls of active or inactive are those of the source. No stated cut-off is given here; in the data, active = GI50 up to about 1.1 µM and inactive = higher.
Below is a list of entries, each paired with its recorded GI50 value.

Example compounds with recorded GI50:
{"COMPOUND": "COCCCN1C(=O)C2c3[nH]c4ccccc4c3C3CCC(C(C)(C)C)CC3C2C1=O (stereo unspecified)", "TARGET_OF_ASSAY": "786-0", "GI50": "22.7 µM (inactive)"}
{"COMPOUND": "Cc1ccc(-c2n[nH]c(=O)n2N)cc1", "TARGET_OF_ASSAY": "786-0", "GI50": "> 100 µM (inactive)"}
{"COMPOUND": "CC(=O)OC1C=CC2CCN3C(=O)c4cc5c(cc4[C@H]1C23)OCO5 (stereo partly specified)", "TARGET_OF_ASSAY": "786-0", "GI50": "> 100 µM (inactive)"}
{"COMPOUND": "Brc1c2c(c(Br)c3nsnc13)N=S=N2", "TARGET_OF_ASSAY": "786-0", "GI50": "15.6 µM (inactive)"}
{"COMPOUND": "CN(C)CCn1nc(N)c2nc3cc(C(F)(F)F)ccc3nc21", "TARGET_OF_ASSAY": "786-0", "GI50": "> 100 µM (inactive)"}

Problem: Name the recorded GI50 of C1CCN(CCC2CCCCN2)CC1 (stereo unspecified) , assay system 786-0.
Solution: > 100 µM (inactive)

Problem: Name the recorded GI50 of O=C1N/C(=N/N=C\C(O)C(O)C(O)C(O)CO)N/C1=C/c1ccc(Cl)cc1 (stereo unspecified) , assay system 786-0.
Solution: > 100 µM (inactive)

Problem: Name the recorded GI50 of CN1C[C@@H]2CCCN2P1Oc1cccc2cccnc12 (stereo partly specified) , assay system 786-0.
Solution: > 100 µM (inactive)

Problem: Name the recorded GI50 of CC(=O)OCC(OC(C)=O)C(OC(C)=O)C(OC(C)=O)C(=O)CNn1c(-c2ccccc2)nc2ccc(Br)cc2c1=O (stereo unspecified) , assay system 786-0.
Solution: > 100 µM (inactive)

Problem: Name the recorded GI50 of O=C(CCc1ccc(O)cc1)NCCc1cccc(O)c1 , assay system 786-0.
Solution: > 50 µM (inactive)

Problem: Name the recorded GI50 of COc1cccc(C=O)c1[O-].COc1cccc(C=O)c1[O-].[Zn+2] , assay system 786-0.
Solution: 49 µM (inactive)

###

Below is a list of entries, each paired with its recorded GI50 value.
# Tested on: COLO 205
# EXPERIMENT: NCI tumour cell line growth inhibition, 48 h
Activity calls are given as the source filed them. Cut-off read from the data, not from the text of the source: active = GI50 up to about 1.1 µM and inactive = higher.

Example compounds with recorded GI50:
{"COMPOUND": "Nc1nc(NCc2ccccc2)cc(NCc2ccccc2)n1", "MEASURED_VALUE": "2.97 µM (inactive)"}
{"COMPOUND": "CNC(=O)OCC1=C(COC(=O)NC)C(C)N(c2ccc(OC)cc2)C1 (stereo unspecified)", "MEASURED_VALUE": "59 µM (inactive)"}
{"COMPOUND": "Cn1c2ccccc2n2c3ncccc3c(=S)c(C#N)c12", "MEASURED_VALUE": "> 100 µM (inactive)"}
{"COMPOUND": "COC12CCCN1c1ccn(Cc3ccccc3)c(=O)c1C2=O (stereo unspecified)", "MEASURED_VALUE": "> 100 µM (inactive)"}
{"COMPOUND": "Cc1cc2[nH]c3c(C#N)c(-c4ccccc4)c(/C=N/c4ccc(F)cc4)c(=O)n3c2cc1C", "MEASURED_VALUE": "> 100 µM (inactive)"}
{"COMPOUND": "C[Si](C)(c1ccc(C(=O)O)cc1)c1ccc(C(=O)O)cc1", "MEASURED_VALUE": "> 100 µM (inactive)"}

Problem: Input Nc1c(-c2ccccc2-c2c(N)[n+]([O-])c3ccccc3[n+]2[O-])[n+]([O-])c2ccccc2[n+]1[O-] , output reported GI50.
Solution: 4.69 µM (inactive)

Problem: Input O=C1CC(=O)NC(NN2C(=O)/C(=C/c3ccc(Cl)c(Cl)c3)N=C2c2ccccc2)=N1 , output reported GI50.
Solution: 18.8 µM (inactive)

Problem: Input C1=CCN(c2ccccc2)CC1 , output reported GI50.
Solution: 34.5 µM (inactive)

Problem: Input c1ccc(CN2CCC(=NN3CCCCC3)CC2)cc1 , output reported GI50.
Solution: 28.1 µM (inactive)

Problem: Input Nc1nc(NC2C=C(CO)C(O)C2O)c([N+](=O)[O-])c(=O)[nH]1 (stereo unspecified) , output reported GI50.
Solution: > 100 µM (inactive)

Problem: Input COc1ccc(C2=C(Cl)c3cc(OC)c(OC)cc3C2Cl)cc1OC (stereo unspecified) , output reported GI50.
Solution: 18.3 µM (inactive)

Problem: Input NNC(=O)CS(=O)(=O)Nc1ncccn1 , output reported GI50.
Solution: > 100 µM (inactive)

Problem: Input CCOc1ccc(NC(=O)C(=O)CC(=O)C2=C(C)Nc3ccccc3S2)cc1 , output reported GI50.
Solution: > 50 µM (inactive)

Problem: Input CCCCCC(C)C[C@H]1CO[C@H](c2ccc[nH]2)N[C@H]1C(=O)OC (stereo partly specified) , output reported GI50.
Solution: > 100 µM (inactive)

Problem: Input O=C(O[C@H]1[C@@H]2C=CO[C@@H](OC3OC(CO)C(O)C(O)C3O)[C@@H]2[C@@]2(CO)O[C@@H]12)c1ccc(O)c(O)c1 (stereo partly specified) , output reported GI50.
Solution: > 100 µM (inactive)
